Record form. Attribute: growth inhibition. Fill in for each entry.
Assay: NCI Yeast Anticancer Drug Screen. Data for the cln2 rad14 strain (AID 165);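 also: 0% = growth equal to vehicle treated cultures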
Details: S. cerevisiae cln2 rad14 strain, at 50.0 µM, hits give high values
This is part of a sample that, as a whole, favours compounds with a hit. Of some 79,000 tested, about 15% had one in any assay.
// units = %; emit number, no label

For C/C(=C/c1c(C)c([N+](=O)[O-])c(C)c(C)c1[N+](=O)[O-])C(=O)O , what is its reported growth inhibition? 11.4

Thanks! And NC(=O)CNCC1Cc2ccccc21 (centres undefined) ? -16.4

Can you check CCN(CC)CCOc1cccc(Oc2ccccc2)c1 next? 68.2

What would you report for CCCCCCCCCC(CC(OC)OCC)OC (centres undefined) ? -13.8

Entry to check: O=C1CSC2=NC3=C(COC/C3=C\c3ccc(F)cc3)C(c3ccc(F)cc3)N12 (centres undefined) 21.2

Quick one: Cc1ccc(-c2nc3ccccc3c(=O)o2)cc1 -8.6

Can you handle Cc1c([N+](=O)[O-])cc(C(C)(C)C)c(OS(=O)(=O)N(C)C)c1[N+](=O)[O-] next? 13.1

Then what about the compound C/C(=N\Nc1cc(C)nc2cc3c(cc12)OCO3)c1cn(C)n(-c2ccccc2)c1=O ? 34.9

Queued: CC(=O)Nc1cccc2c(OC(C)=O)cccc12 -50

Also check COc1ccc(NC(=O)C/C(C)=C2/C(=O)NN(c3ccccc3)C2=O)cc1 4.5

Another: COc1cc(NC(=O)CCN2CCOCC2)c2ncccc2c1 -29.4

Query CC(C)Oc1ccc(C(N)=S)c2ccccc12 next -29.1

What about CCCCCCCCCCCCCCCCCCCCCCCC ? -53

Please give the result for CN(C)c1ccc([N+](=O)[O-])cc1 too. -43.1

What about this compound? CCOC(=O)/C=C/CI 8.4

Next up: CC(OC(C)C(N)=O)C(N)=O (centres undefined) -3.05

Queued: C[N+](C)(C)CC(=O)c1ccc[nH]1 -0.8

Also CC(=O)[CH-]C(=O)c1ccccc1.CC(=O)[CH-]C(=O)c1ccccc1.CC[C@H](/C=C/C(C)[C@H]1CCC2[C@@H]3CC=C4C[C@@H]([O-])CC[C@]4(C)C3CC[C@@]21C)C(C)C.CC[O-].[Ti+4] (some centres undefined) , if possible. -2.3

Would you mind doing CC/C(SC)=[N+](\C)[O-] as well? -5.6

Same for NC(CSS(=O)(=O)O)=NCC1CC2CCC1C2 (centres undefined) 6.95

Then what about the compound O=C(O)CC1CC(=O)OC1(c1ccccc1)c1ccccc1 (centres undefined) ? 2.8

Also, COC(=O)C1=COC(OC2OC(CO)C(O)C(O)C2O)C2C(C)CC(=O)C12 (centres undefined) please. 20.6

Quick one: COc1ccccc1NC(=O)C(/C=N/C(N)=S)=C(\C)O 7.6

Repeat for the following compound: CC1=C(C(=O)CC(=O)C(=O)Nc2ccc(C)cc2C)Sc2ccccc2N1 -9.8

###

Experiment: NCI Yeast Anticancer Drug Screen. Data for the bub3 strain (AID 167)
Conditions: S. cerevisiae bub3 mutant strain, at 50.0 µM, hits give high values
The panel holds about 79,000 compounds, 15% with a hit somewhere; the sample as a whole holds those more often. Where a SMILES comes first, the peptide text is derived from it. The star is where a group is joined. Boc = CC(C)(C)OC(=O)*
Consider the following molecules; for each one, report its growth inhibition.
// units = %; emit number, no label

Bench note: what growth inhibition did Nc1c(Cl)cc(Cl)cc1C(=O)O show? -11.2

Proceed to CCOC(=O)C(CCC#N)(CCC#N)C(C)=O 0.15

Param item: O=C1NC(=S)SC1=C1CCCCC1 37.9

Then what about the molecule Cc1ccc(P(=O)(O)O)cc1C ? -7.75

Again, but for COc1cc(C2=N/C(=C\c3ccc(Cl)c(Cl)c3)C(=O)O2)cc(OC)c1OC -4.4

Param item: Cc1ccc(S(=O)(=O)C(Sc2ccccc2)=S=NC(C)(C)C)cc1 81.8

Now the same for N#Cc1ccccc1NC(=O)C(=O)C1NC(=S)NC1=O (stereo unspecified) -3.2

Check O=[N+]([O-])/C(C(Cl)=C(Cl)Cl)=C(/Cl)Sc1ccccc1 too. 89.1

Same lookup for O=[N+]([O-])c1ccc(Sc2c3ccccc3nc3cc(Cl)ccc23)cc1 , please. -20.3

Entry CC(C)CC1=C(C(=O)c2ccoc2)CC(C)C1 (stereo unspecified) please 25.9

Now consider CCN(C(=O)/C=C/c1ccccc1)C1CCCCC1 . 35.5

Then what about the molecule CCC1(N=[N+]=[N-])C(=O)c2ccccc2N(c2ccccc2)C1=O (stereo unspecified) ? -0.95

Try COc1n[n+]([O-])c(OC)cc1[N+](=O)[O-] next. 17.6

Ok, now CCC(=O)NCCc1ccccc1 -5.8

Input c1ccc(-c2c3ccccc3c(-c3ccccc3)c3ccccc23)cc1 2.4

Same lookup for O=C1c2ccccc2N2Oc3ccccc3C12c1ccccc1 (stereo unspecified) , please. -21.2

Try this molecule next: CCCCN1C(=O)C(=O)N(CCc2ccc(OC)c(OC)c2)C1=O 1.35

Entry to check: O=C1NC(N2CCCCC2)=N/C1=C\c1ccccc1O 5.5

Now this one: COC1(C)C=NCC(C)(C)NC(=O)C(C)(OC)C=NCC(C)(C)NC1=O (stereo unspecified) -21.6

What about this molecule? CCOC(=O)c1cc(C)nc2ccc(Br)cc12 4.2

Queued: O=C(CC/C=C(/CS(=O)(=O)c1ccccc1)S(=O)(=O)c1ccccc1)c1ccccc1 -6.15

Okay, and Cc1ccc(S(=O)(=O)CO)cc1 ? -27.9

What about this molecule? CCC1(O)CC2CN(CCc3c([nH]c4ccccc34)C(C(=O)OC)(c3cc4c(cc3OC)N(C)C3C(O)(C(=O)NCCSSCCNC(=O)C5(O)C(O)C6(CC)C=CCN7CCC8(c9cc(C%10(C(=O)OC)CC%11CN(CCc%12c%10[nH]c%10ccccc%12%10)CC(O)(CC)C%11)c(OC)cc9N(C)C58)C76)C(O)C5(CC)C=CCN6CCC43C65)C2)C1 (stereo unspecified) 40.1

Then this molecule: COc1ccc(/C=C2\CCC/C(=C\c3ccc(O)c(CN4CCCCC4)c3)C2=O)cc1 89.1

Try this molecule next: O=C(Nc1ccccc1)Oc1ccccc1C1CCCCC1 -18.9

Would you kindly repeat that for O=C(CO)CC(=O)CCC(=O)Nc1cccc([N+](=O)[O-])c1 ? -12.3

Another molecule to look at: C=CC1CNCCC1CCC(=O)c1ccnc2ccc(OC)cc12 (stereo unspecified) 1.15

Queued: Cn1c(N2CCCC2)c(C=O)c(=O)n(C)c1=O -10.9

Proceed to O=C(Nc1ccc(S(=O)(=O)NC2CCCCC2)cc1)OC(c1ccccc1)c1ccccc1 -6.15

Input N#Cc1ccc(Cl)cc1C#N 14.1

What about this molecule? CSc1nnc(SCc2nn3c(=O)cc(C)nc3s2)s1 5.55

Follow-up entry: O=C(Nc1cc(Br)c2cccc3c2c1CC3)c1ccccc1 14.3

Would you kindly repeat that for CCOC(=O)c1cn(C)c2c1C(O)=C(C(=O)OC)CC(=O)N2 ? -12.6

Can you handle CC(C)/C(=N\[N+](C)(C)C)c1ccccc1 next? -22.7

Field entry: CCN(CC)CC#CCOc1ccc(/C=C/c2ccccn2)cc1 5.65

Entry CSCCC(NC(=O)C(CC(C)C)NC(=O)CNC(=O)OC(C)(C)C)C(=O)N(C)C (stereo not drawn) (Boc-Gly-Leu-Met-NMe2; configuration not given here) please -0.1

One more molecule: Nc1cc(S(N)(=O)=O)ccc1O -12

Lookup CCOC(=O)C1CCCCN1C(=O)OCc1ccccc1 (stereo unspecified) 20.9

And what about the molecule Nc1cnccn1 ? 9.3

Now try Nc1c(-c2ncc[nH]2)ncn1CC(O)C(O)C(O)CO (stereo unspecified) . 3.2

// next record Cc1cc(=O)oc2cc(OC(=O)Nc3ccc(F)c([N+](=O)[O-])c3)ccc12 53.9

Now the molecule O=P(CCC(O)c1ccccc1)(c1ccccc1)c1ccccc1 (stereo unspecified) -9.6

Quick one: CCOP(=O)(OCC)c1nc(Cl)nc(Cl)c1SC(F)(F)F -4.4

Same thing, different molecule: Cc1ccc(S(=O)(=O)/C(C#N)=C/NC(=S)Nc2ccc(S(N)(=O)=O)cc2)cc1 -10.7

Next: O=C(O)CSc1nc2c(Cl)c(Cl)c(Cl)cc2[nH]1 13.2

Input N#CC(=O)Nc1ccc(F)cc1 1.9

src = PubChem BioAssay (NCI)
